- target_or_test_system: MSI1 full-length (mouse, UniProt Q61474 1-362)
- Sequence (Q61474 whole entry): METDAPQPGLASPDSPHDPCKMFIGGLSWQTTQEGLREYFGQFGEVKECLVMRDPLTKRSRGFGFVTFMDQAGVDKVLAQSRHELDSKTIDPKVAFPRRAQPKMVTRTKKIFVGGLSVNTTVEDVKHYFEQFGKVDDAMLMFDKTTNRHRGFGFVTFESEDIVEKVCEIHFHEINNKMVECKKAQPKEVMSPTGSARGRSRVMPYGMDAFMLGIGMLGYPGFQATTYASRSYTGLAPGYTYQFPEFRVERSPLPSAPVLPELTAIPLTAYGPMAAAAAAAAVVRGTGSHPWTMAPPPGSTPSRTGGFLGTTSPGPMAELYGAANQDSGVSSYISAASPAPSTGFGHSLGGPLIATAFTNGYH
- assay_info: nsRBNS (natural sequence RNA bind-n-seq); RBNS binding buffer (assumed for nsRBNS): 25 mM Tris pH 7.5, 150 mM KCl, 3 mM MgCl2, 0.01% Triton X-100, 500 ug/ml BSA, 20 U/ml SUPERase-In, 4 C; UNK is unkempt and MSI1 is Musashi-1; names of the RNAs are library labels; protein concentration not given here; high values mean tight binding
Whole data set: some 5,800 sequences, median “enrichment r” near 0.54, cut for the highest 2% near 16. This is one part of a sample in which the highest values are shown more often than they occur.
recorded_endpoint: binding signal (enrichment R)
Express the result in enrichment R but write the number alone.

These solved cases illustrate the format of a correct answer.
binder	recorded_endpoint	reported_result
chr11:130144177:130144243:+|3pUTR|ENSG00000084234|msi1_unk|total|mutant (ssRNA) RNA: GGGAGUUCUACAGUCCGACGAUCAUGAGGGUGUCCGCUGCUGCUUUCCUUCGGAAUCCAGUGCUUCCACAGAGAUCCGCCUGCCGCUUAUAUUUGACAUUCUUCACUGUCUGUUGUUUACCUACCGCCGCUUUUUACCGUUCACAACAGAGGAUUGAGCAUCA	binding signal	0.557
chr1:162523450:162523604:+|3pUTR|ENSG00000152332|msi1|total|mutant (ssRNA) RNA: GGGAGUUCUACAGUCCGACGAUCAGACUAAGUUGUGCCAGAUGUAAAUCAACCCCUCUUUCCGUUUACUUCCGACUUUGUAUCCGCUCAUCUUUUUUGCCGUAAAUCUACCGUUUUAAGGUUUCUCAAGAUGUGGCUCUACCUCAACAGAGGAUUGAGCAUCA	binding signal	0.276

Prompt: Bench note: what binding signal did chr10:119167843:119167906:-|3pUTR|ENSG00000165672|msi1_unk|FALSE|overlapping (ssRNA) RNA: GGGAGUUCUACAGUCCGACGAUCUGCAUGAUCCCUCAUCCCUGAAAUUGAGUUUAUGUAGUCAUUUUACUUAUUUUAUUCAUUAGCUAACUUUGUCUAUGUAUAUUUCUAGAUAUUGAUUAGUGUAAUCGAUUAUAAAGGAUACAACAGAGGAUUGAGCAUCA show?
Response: 1.93
